- SYSTEM: Beta-secretase 1 (Homo sapiens, UniProt P56817)
- Sequence (P56817 whole entry): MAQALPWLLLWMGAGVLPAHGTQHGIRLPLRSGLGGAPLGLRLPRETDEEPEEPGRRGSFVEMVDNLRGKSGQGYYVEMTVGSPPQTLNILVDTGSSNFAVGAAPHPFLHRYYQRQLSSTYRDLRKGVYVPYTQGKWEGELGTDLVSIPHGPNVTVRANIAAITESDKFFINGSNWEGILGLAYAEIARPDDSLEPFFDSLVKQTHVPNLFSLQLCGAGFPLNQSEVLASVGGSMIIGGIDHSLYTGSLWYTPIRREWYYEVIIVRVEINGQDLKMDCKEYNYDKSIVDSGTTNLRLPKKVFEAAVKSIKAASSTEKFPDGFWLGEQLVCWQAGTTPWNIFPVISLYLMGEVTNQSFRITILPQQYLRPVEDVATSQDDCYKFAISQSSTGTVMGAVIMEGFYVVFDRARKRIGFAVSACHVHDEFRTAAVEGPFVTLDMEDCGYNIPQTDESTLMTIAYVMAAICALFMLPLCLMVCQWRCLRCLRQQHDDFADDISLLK
- MEASUREMENT PROTOCOL: Inhibition of human recombinant BACE1 preincubated after 1 hr by fluorescence assay
PROPERTY LABEL: pIC50
Remember the convention: pIC50 equals -log10 of concentration in molar.

Some compounds with known pIC50 results, for comparison:
CPD SMILES | pIC50
O=C1C(c2ccccc2)=CC(=O)c2c(O)cccc21 | 4.90
O=C1C(c2ccc(O)cc2)=CC(=O)c2c(O)cccc21 | 4.79
COc1ccc(-c2cc(O)cc(-c3ccccc3)c2OC(C)=O)cc1 | 4.95
COc1ccc(C2=CC(=O)c3c(OC)cccc3C2=O)cc1 | 4.95
O=C1C=C(c2ccccc2)C(=O)c2c(O)cccc21 | 5.05

stdin: Fill in the recorded pIC50 for this compound, with Beta-secretase 1 (Homo sapiens, UniProt P56817) as test system: `COc1ccc(C2=CC(=O)C=C(c3ccccc3)C2=O)cc1`
stdout: 4.87
